- SYSTEM TESTED: recombinant LmPTR1 (Leishmania major pteridine reductase I) (Leishmania major, UniProt Q01782)
- Construct: poly-His (N); made in house; host or cells: E. coli BL21 (DE3)
- Sequence (Q01782 whole entry): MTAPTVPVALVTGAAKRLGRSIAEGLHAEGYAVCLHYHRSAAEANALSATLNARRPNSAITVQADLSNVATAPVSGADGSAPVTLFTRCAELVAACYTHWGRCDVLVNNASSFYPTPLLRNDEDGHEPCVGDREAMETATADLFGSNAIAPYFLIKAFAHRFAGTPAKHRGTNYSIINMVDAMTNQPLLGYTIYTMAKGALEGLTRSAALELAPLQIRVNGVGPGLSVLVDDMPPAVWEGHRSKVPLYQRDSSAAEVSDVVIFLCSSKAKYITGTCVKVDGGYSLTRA
- METHOD: biochemical
- RUN CONDITIONS: pH 6, inhibitor 50 µM; 250 µM NADPH, 22.5 µM folic acid, pH 6; triplicate; n.i. = no inhibition at 50 µM; read-out: % Inhibition at c = 50 µM
Reported inhibition at 50 µM by item:
State just the number; it will be interpreted in %.

Previously resolved entries follow.
COc1cc([C@@H]2Oc3cc([C@H]4Oc5cc(O)cc(O)c5C(=O)[C@@H]4O)ccc3O[C@H]2CO)ccc1O = 19
COc1cc([C@@H]2Oc3c(O)cc([C@H]4Oc5cc(O)cc(O)c5C(=O)[C@@H]4O)cc3[C@H]2CO)ccc1O = 24

**Q:** Output inhibition at 50 µM of `O=C(/C=C/c1ccc(O)c(O)c1)O[C@H](Cc1ccc(O)c(O)c1)C(=O)O`
**A:** 20

**Q:** Output inhibition at 50 µM of O=C(O[C@@H]1Cc2c(O)cc(O)cc2O[C@@H]1c1ccc(O)c(O)c1)c1cc(O)c(O)c(O)c1 [(−)-epicatechin-3-gallate]
**A:** 24

**Q:** Output inhibition at 50 µM of `COc1cc([C@H]2Oc3cc([C@H]4Oc5cc(O)cc(O)c5C(=O)[C@@H]4O)ccc3O[C@@H]2CO)ccc1O`
**A:** 14

**Q:** Output inhibition at 50 µM of COc1cc(O)c(CC=C(C)C)c2c1C(=O)CC(c1ccc(O)cc1)O2 (stereo not drawn)
**A:** 22

====

Reported IC50 by item:
- SYSTEM TESTED: recombinant LmPTR1 (Leishmania major pteridine reductase I) (Leishmania major, UniProt Q01782)
- Construct: poly-His (N); made in house; host or cells: E. coli BL21 (DE3)
- METHOD: biochemical
State just the number; it will be interpreted in µM.

O=c1cc(-c2ccc(O)cc2)oc2cc(OC3OC(CO)C(O)C(O)C3O)cc(O)c12 (centres unmarked) [apigenin-7-glucoside] = 43.5

**Q:** Output IC50 of O=C(/C=C/c1ccc(O)c(O)c1/C=C/c1ccc(O)c(O)c1)O[C@H](Cc1ccc(O)c(O)c1)C(=O)O [salvianolic acid A]
**A:** 42.2

====

- SYSTEM TESTED: recombinant LmPTR1 (Leishmania major pteridine reductase I) (Leishmania major)
- Construct: poly-His (N); made in house; host or cells: E. coli BL21 (DE3)
- METHOD: biochemical
- RUN CONDITIONS: in brackets: 95% confidence interval; n = 4 to 7 concentrations; non-linear regression; read-out: IC50
Reported IC50 by item:
State just the number; it will be interpreted in µM.

Previously resolved entries follow.
C=C(C)[C@H](CC=C(C)C)Cc1c(O)cc(O)c2c1O[C@H](c1ccc(O)cc1O)CC2=O = 19.2
CC(C)=CCc1c(O)cc2oc3cc(O)c(O)c(CCC(C)(C)O)c3c(=O)c2c1O = 26.3

Next molecule, IC50 to be filled in.
**Q:** Output IC50 of `O=c1c(O)c(-c2cc(O)c(O)c(O)c2)oc2cc(O)cc(O)c12`
**A:** 21

====

- SYSTEM TESTED: recombinant LmPTR1 (Leishmania major pteridine reductase I) (Leishmania major, UniProt Q01782)
- Construct: poly-His (N); made in house; host or cells: E. coli BL21 (DE3)
- METHOD: biochemical
- RUN CONDITIONS: pH 6, inhibitor 50 µM; 250 µM NADPH, 22.5 µM folic acid, pH 6; triplicate; n.i. = no inhibition at 50 µM; read-out: % Inhibition at c = 50 µM
- Procedure: In order to assess the inhibitory activity of the compounds identified in silico, spectrophotometric inhibition assays were performed on recombinant LmPTR1, measuring the decreasing concentration of NADPH at 340 nm as a linear kinetic parameter for LmPTR1 activity at saturating concentrations of NADPH (co-substrate) and folic acid (substrate). […]
PARAMETER MEASURED: inhibition at 50 µM

O=c1cc(-c2ccc(O)cc2)oc2cc(OC3OC(CO)C(O)C(O)C3O)cc(O)c12 (stereo not drawn) [apigenin-7-glucoside] = > 50%
O=C(/C=C/c1ccc(O)c(O)c1/C=C/c1ccc(O)c(O)c1)O[C@H](Cc1ccc(O)c(O)c1)C(=O)O [salvianolic acid A] = > 50%

Next compound, inhibition at 50 µM to be filled in.
**Q:** Output inhibition at 50 µM of COc1cc([C@H]2Oc3cc(-c4oc5cc(O)cc(O)c5c(=O)c4O)ccc3O[C@@H]2CO)ccc1O [2,3-dehydrosilybin A]
**A:** > 50%

Entry source: paper PMC6149668
